System: CEM cells HIV-1 protection, formazan growth assay
Assay: NCI AIDS Antiviral Assay
Quantity Name: EC50

O=C1[C@H](Cl)[C@H]2c3cc4ccccc4nc3Oc3ccccc3N12; > 22.4 µM
NC(=O)c1cnc2sc3ccccc3n2c1=O; > 200 µM
CC(=O)O[C@@H]1CN(S(=O)(=O)c2ccc(C)cc2)C[C@@H]1C1CCCCC1; > 200 µM
COc1cc(C)c2c(c1C)OC(=O)c1c(C)c(Cl)c(O)c(C=O)c1O2; > 49 µM
O=C(O)/C(=C/c1ccc([N+](=O)[O-])cc1)c1ccccc1; > 490 µM

Exercise: Give its EC50 value. Item: `CNc1cc(OCc2ccccc2)c(OC)cc1C(=O)N1CCC[C@H]1CO`
Solution: > 200 µM

Exercise: Give its EC50 value. Item: NC(=O)C1N=NSC1NC(=O)c1ccc([N+](=O)[O-])cc1 (stereo not given)
Solution: > 200 µM

Exercise: Give its EC50 value. Item: `Cc1ccc(C)c(COCCOCn2cc(N3CCOCC3)c(=O)[nH]c2=O)c1`
Solution: > 200 µM

Exercise: Give its EC50 value. Item: CCOC(=O)C1(Br)C(c2ccccc2)NC(=O)N(C2OC(COC(=O)c3ccccc3)C(OC(=O)c3ccccc3)C2OC(=O)c2ccccc2)C1(C)Br (stereo not given)
Solution: > 15.8 µM

Exercise: Give its EC50 value. Item: `O=C1Nc2c(ccc(Cl)c2I)C1=O`
Solution: > 162 µM

###

IC50 for assorted molecules
Test system: CEM cells HIV-1 protection, formazan growth assay
Test: NCI AIDS Antiviral Assay
Details: measured here: growth of uninfected CEM cells
The reply should contain only the number, in µM.

Below, 3 molecules whose answers are already recorded.
C/C=C(/C)C(=O)O[C@H]1[C@H](O)CC(c2ccc3c(c2O)C(O)=C2C(=O)C4(OC)C(O)=C(C(N)=O)C(=O)[C@H](CC(=O)c5ccccc5O)C4CC2[C@@]3(C)OC)O[C@@H]1C (some centres undefined); 0.000631
O=C1/C(=C/c2ccccc2)CCc2ccc([N+](=O)[O-])cc21; 11.2
COc1ccc(/C=C/C(=O)Oc2cc(O)cc(O)c2)cc1; 4.57

Exercise: Give its IC50 value. Item: Clc1ccc2c(NCCCCN3OC3c3ccccc3)ccnc2c1 (centres undefined)
Solution: 5.01

Exercise: Give its IC50 value. Item: `O=C(NCCCCN(CCCNC(=O)C(F)(F)F)Cc1ccccc1)C(F)(F)F`
Solution: 97.7

Exercise: Give its IC50 value. Item: `C/C(=N\NC(=S)NNC(=S)N(C)c1ccccc1)c1ccccn1`
Solution: 0.427

Exercise: Give its IC50 value. Item: Brc1ccc(C2CC3(c4ccccc4)ON=C(c4ccccc4)N3c3ccccc3S2)cc1 (centres undefined)
Solution: 174

Exercise: Give its IC50 value. Item: `CCOC(=O)c1nc2cc(C(F)(F)F)ccc2nc1Oc1ccc(C(=O)OC)cc1`
Solution: 95.5

###

System: CEM cells HIV-1 protection, formazan growth assay
Assay: NCI AIDS Antiviral Assay;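 active = compounds giving half or more protection of infected cells from virus-caused growth loss, again on retest; inactive = the rest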
The categories you may choose from are active, inactive

CN1N=Nc2ccccc2C1(O)c1ccc(F)cc1 (stereo not drawn); inactive

Exercise: Which outcome was entered for the molecule CCCC(C)(O)CCC(O)(CCC)CCC (stereo not drawn) in this test?
Solution: inactive

Exercise: Which outcome was entered for the molecule `CCCC/C=C(\CCCNCCCC)[Si](C)(C)C` in this test?
Solution: inactive

Exercise: Which outcome was entered for the molecule O=C1N(CCO)C2=CCCCC23c2[nH]c4ccccc4c2CCN13 (stereo not drawn) in this test?
Solution: inactive

Exercise: Which outcome was entered for the molecule COc1cc2c(cc1OC)C(=O)N1CSCC1C(=O)S2 (stereo not drawn) in this test?
Solution: inactive

Exercise: Which outcome was entered for the molecule `c1ccc([P+](Cc2ccc3c(c2)OCO3)(c2ccccc2)c2ccccc2)cc1` in this test?
Solution: inactive

Exercise: Which outcome was entered for the molecule `O=C(Cc1ccccc1)NN1C(=O)/C(=C\c2ccccc2O)SC1=Nc1ccccc1` in this test?
Solution: inactive

Exercise: Which outcome was entered for the molecule `N#C/C(=C\NC(=S)Nc1ccc(S(=O)(=O)Nc2nccs2)cc1)C(=O)c1ccc2ccccc2c1` in this test?
Solution: inactive

Exercise: Which outcome was entered for the molecule C#CCOCC12C=CC(O1)C1C(=O)N(C)C(=O)C12 (stereo not drawn) in this test?
Solution: inactive

Exercise: Which outcome was entered for the molecule CNC(C#N)c1ccc(OC)cc1 (stereo not drawn) in this test?
Solution: inactive

Exercise: Which outcome was entered for the molecule `Cc1ccc(C(=O)O)cc1S(=O)(=O)Nn1cnc2ccc(S(=O)(=O)Nc3ccccc3C(=O)O)cc2c1=O` in this test?
Solution: inactive

Exercise: Which outcome was entered for the molecule `COc1ccc(-c2nc(-c3cnccn3)n(Cc3ccccc3)n2)cc1` in this test?
Solution: active

Exercise: Which outcome was entered for the molecule `CN(C)CCCn1c2c3ccccc3ccc2c2oc(=O)c3ccccc3c21` in this test?
Solution: inactive

Exercise: Which outcome was entered for the molecule `COc1ccc(CCN2COc3ccc4ccc(=O)oc4c3C2)cc1OC` in this test?
Solution: inactive

Exercise: Which outcome was entered for the molecule COc1ccc2nc3n(c2c1)C(c1c(F)cccc1Cl)SC3 (stereo not drawn) in this test?
Solution: inactive

Exercise: Which outcome was entered for the molecule CC(=O)OC(/C=C1/C=CC(=O)O1)COC(=O)c1ccccc1 (stereo not drawn) in this test?
Solution: inactive

Exercise: Which outcome was entered for the molecule `S=C1N/N=C/NN/C=N/N1` in this test?
Solution: inactive

Exercise: Which outcome was entered for the molecule COc1ccc(-c2cc(-c3ccc(Cl)cc3)n(C3OC(CO)C(O)C(O)C3O)c(=S)c2C#N)cc1 (stereo not drawn) in this test?
Solution: inactive

Exercise: Which outcome was entered for the molecule `O=C(OCCN1CCCC1)c1cc2ccccc2n1Cc1ccccc1` in this test?
Solution: inactive

Exercise: Which outcome was entered for the molecule `C/C(=N\O)c1sc(-n2nc(-c3ccccc3)cc2-c2ccccc2)nc1C` in this test?
Solution: inactive

Exercise: Which outcome was entered for the molecule `O=[N+]([O-])c1cc2ccc(O)cc2c2ccccc12` in this test?
Solution: inactive

Exercise: Which outcome was entered for the molecule `COc1c(OC)c(OC)c(-c2cc(=O)c3c(OC)c(OC)c(OC)c(OC)c3o2)c(OC)c1OC` in this test?
Solution: inactive

###

System: CEM cells HIV-1 protection, formazan growth assay
Experiment: NCI AIDS Antiviral Assay
Conditions: measured here: growth of uninfected CEM cells
pIC50: −log10 of the molar value.
Each entry belongs to exactly one class, chosen by where its pIC50 falls: lo: < 4; med: ≥ 4 and < 5; hi: ≥ 5

A selection of reference data follows.
COC(=O)CSSCc1ccccc1; hi
CC(=O)Nc1ccccc1S(=O)c1ccccc1 (configuration not stated); lo
Fc1cccc(Cl)c1C1SCc2nc3ccccc3n21 (configuration not stated); hi
COc1ccc(CC(=O)c2cc(OC)c(OC)cc2C)cc1OC; med

Exercise: Categorize the following entry: COc1c(OC2OC(CO)C(O)C(O)C2O)cc2occ(-c3ccc4c(c3)OCO4)c(=O)c2c1O (configuration not stated)
Solution: lo

Exercise: Categorize the following entry: `CCN(CC)c1cc2oc(=O)cc(C)c2cc1NC(=O)c1ccccc1`
Solution: hi

Exercise: Categorize the following entry: `Cc1cc2n(n1)C(C)(C)C(=O)Nc1ccc(Cl)cc1-2`
Solution: med

Exercise: Categorize the following entry: `O=c1[nH]c(O)c(/C=N/C(=S)NCc2ccccc2)c(=O)[nH]1`
Solution: lo

Exercise: Categorize the following entry: `COC(=O)c1c(C(=O)OC)c(C(c2ccccc2)c2ccccc2)n(-c2ccccc2)c1Cl`
Solution: med

Exercise: Categorize the following entry: CS(=O)(=O)Nc1ccc2c(c1)N(S(C)(=O)=O)CC2CCl (configuration not stated)
Solution: lo

###

System: CEM cells HIV-1 protection, formazan growth assay
Experiment: NCI AIDS Antiviral Assay
pEC50: −log10 of the molar value.
Quantity Name: pEC50

O=C(NCCCl)N(O)C(=O)Nc1ccccc1; < 3.70
NC(C(F)(F)F)(C(F)(F)F)P(=O)(c1ccccc1)c1ccccc1; < 3.70
CC(=O)c1c(N=[N+]=[N-])c2cccc3c2n(c1=O)CCC3; < 3.70
COc1ccc(C(CC(=O)O)c2ccccc2)cc1 (centres undefined); < 3.15
Cc1cn(C2CC(F)C(CO)O2)c(=O)[nH]c1=O (centres undefined); 7.96

Exercise: Give its pEC50 value. Item: `COc1ccc(/C=C2\C=Cc3ccccc32)cc1OC`
Solution: < 3.70

Exercise: Give its pEC50 value. Item: CN(C)CC1CCC/C(=C\c2ccc(OC(=O)/C=C/c3ccc(Cl)c(Cl)c3)cc2)C1=O (centres undefined)
Solution: < 4.00

Exercise: Give its pEC50 value. Item: `Cc1[nH]nc2c1NC(=O)OCC2`
Solution: < 3.26

Exercise: Give its pEC50 value. Item: `C=C([Si](C)(C)C)[Si](C)(C)C`
Solution: < 3.68

Exercise: Give its pEC50 value. Item: COC(=O)C(C(=O)C(=O)Nc1ccc(C)cc1C)c1csc(-n2nc(-c3ccccc3)cc2-c2ccccc2)n1 (centres undefined)
Solution: < 3.80

Exercise: Give its pEC50 value. Item: `Cc1nc2c(=O)[nH]c(=O)n(C)c2[nH]c1=O`
Solution: < 4.46

Exercise: Give its pEC50 value. Item: `Nc1ccc(S(=O)(=O)Cc2ccc(C(=O)O)cc2[N+](=O)[O-])cc1`
Solution: < 3.97

Exercise: Give its pEC50 value. Item: `O=C1CCCN1CO`
Solution: < 3.70

Exercise: Give its pEC50 value. Item: `O=C1C(Br)=C(Br)C(=O)c2ccc(=O)ccc21`
Solution: < 4.26

Exercise: Give its pEC50 value. Item: `N#CCCNCCN(CCN(C(=O)Nc1ccccc1)c1ccccc1)C(=O)Nc1ccccc1`
Solution: < 3.70
